- experiment: Stability in the human blood
- Assay type: in vitro ADME
- condition: 2 μM, 120 min
property: % 120 min (residue percentage) (%)
Answers are plain numbers, in %.

# example entries with known answers
{"columns": ["compound", "% 120 min (residue percentage) (%)"],
 "data": [
  ["CC(C)OC(=O)[C@H](C)N[P@](=O)(CO[C@H](C)Cn1cnc2c(N)ncnc21)Oc1ccccc1", 90.0],
  ["Cc1ccccc1CO[P@@](=O)(CO[C@H](C)Cn1cnc2c(N)ncnc21)N[C@@H](C)C(=O)OC(C)C", 90.1],
  ["CC1CC(OC(=O)C(O)c2ccccc2)CC(C)(C)N1C (centres unmarked)", 10.2]
]}

Record % 120 min (residue percentage) per entry; entries follow.
1. CC(C)OC(=O)[C@H](C)N[P@@](=O)(CO[C@H](C)Cn1cnc2c(N)ncnc21)OCc1ccccc1 (single isomer, unassigned)
2. CC(C)OC(=O)[C@H](C)N[P@](=O)(CO[C@H](C)Cn1cnc2c(N)ncnc21)OCc1ccccc1 (single isomer, unassigned)

## Output
1: 94.5; 2: 93.7

====

- experiment: in vitro
- Format: cell-based
- condition: human; HepG2.2.15 cells; comparative test, Table 4
property: CC50

{"columns": ["molecule", "CC50"],
 "data": [
  ["Cc1ccccc1CO[P@](=O)(CO[C@H](C)Cn1cnc2c(N)ncnc21)N[C@@H](C)C(=O)OC(C)C", "> 100 µM"]
]}

Kindly review the next compound as well.
## Input Give its CC50 value. Item: `Cc1ccccc1CO[P@@](=O)(CO[C@H](C)Cn1cnc2c(N)ncnc21)N[C@@H](C)C(=O)OC(C)C`
## Output > 100 µM

====

- experiment: Stability in the simulated intestinal fluid
- Assay type: in vitro ADME
- condition: 10 μM, 360 min
Field: % 360 min (residue percentage). Provide a value for each of the compounds that follow.
Give bare numbers, in %.

# example entries with known answers
{"columns": ["compound", "recorded-measurement"],
 "data": [
  ["O=C(O)CCCc1ccc(N(CCCl)CCCl)cc1 [Chlorambucil]", 0.00],
  ["CC(C)OC(=O)[C@H](C)N[P@@](=O)(CO[C@H](C)Cn1cnc2c(N)ncnc21)OCc1ccccc1 (single isomer, unassigned) [Compound 3a]", 1.26],
  ["CC(C)OC(=O)[C@H](C)N[P@](=O)(CO[C@H](C)Cn1cnc2c(N)ncnc21)Oc1ccccc1 [GS-7340]", 0.06]
]}

Record % 360 min (residue percentage) per entry; entries follow.
1. CC(C)OC(=O)[C@H](C)N[P@](=O)(CO[C@H](C)Cn1cnc2c(N)ncnc21)OCc1ccccc1 (single isomer, unassigned) [Compound 3b]
2. Cc1ccccc1CO[P@@](=O)(CO[C@H](C)Cn1cnc2c(N)ncnc21)N[C@@H](C)C(=O)OC(C)C [Compound 7b]

## Output
1: 0.23; 2: 0.09

====

- experiment: Stability in the human blood
- Type: in vitro ADME
- condition: 2 μM, 60 min
Field: % 60 min (residue percentage). Provide a value for each of the molecules that follow.
One number for each entry, in %.

# example entries with known answers
{"columns": ["molecule", "property", "units", "recorded-measurement"],
 "data": [
  ["Cc1ccccc1CO[P@@](=O)(CO[C@H](C)Cn1cnc2c(N)ncnc21)N[C@@H](C)C(=O)OC(C)C [Compound 7b]", "% 60 min (residue percentage)", "%", 90.5],
  ["CC(C)OC(=O)[C@H](C)N[P@](=O)(CO[C@H](C)Cn1cnc2c(N)ncnc21)OCc1ccccc1 (single isomer, unassigned) [Compound 3b]", "% 60 min (residue percentage)", "%", 96.1],
  ["CC1CC(OC(=O)C(O)c2ccccc2)CC(C)(C)N1C (centres unmarked) [Eucatropine]", "% 60 min (residue percentage)", "%", 24.4],
  ["CC(C)OC(=O)[C@H](C)N[P@](=O)(CO[C@H](C)Cn1cnc2c(N)ncnc21)Oc1ccccc1 [GS-7340]", "% 60 min (residue percentage)", "%", 90.3]
]}

Kindly review the next molecule as well.
## Input Give its % 60 min (residue percentage) value. Item: CC(C)OC(=O)[C@H](C)N[P@@](=O)(CO[C@H](C)Cn1cnc2c(N)ncnc21)OCc1ccccc1 (single isomer, unassigned) [Compound 3a]
## Output 97.8

====

- experiment: Stability in the simulated gastric fluid
- Type: in vitro ADME
- condition: 10 μM, 1440 min
property: % 1440 min (residue percentage)

# example entries with known answers
{"columns": ["molecule", "% 1440 min (residue percentage)"],
 "data": [
  ["Cc1ccccc1CO[P@@](=O)(CO[C@H](C)Cn1cnc2c(N)ncnc21)N[C@@H](C)C(=O)OC(C)C", "0.00%"],
  ["CC(C)OC(=O)[C@H](C)N[P@@](=O)(CO[C@H](C)Cn1cnc2c(N)ncnc21)OCc1ccccc1 (single isomer, unassigned)", "0.00%"],
  ["CC(C)OC(=O)[C@H](C)N[P@](=O)(CO[C@H](C)Cn1cnc2c(N)ncnc21)Oc1ccccc1", "0.19%"]
]}

## Input Give its % 1440 min (residue percentage) value. Item: CC(C)OC(=O)[C@H](C)N[P@](=O)(CO[C@H](C)Cn1cnc2c(N)ncnc21)OCc1ccccc1 (single isomer, unassigned)
## Output 0.00%

====

- Tested on: HBV
- experiment: Cell based anti-HBV activity test, HBV DNA in HepG2.2.15 cell supernatant by qPCR
- condition: Hepatitis B virus, HepG2.2.15, HepG2.2.15 cells, HBV DNA in supernatant on 8th day; Table 3; read-out: EC50
property: EC50

{"columns": ["compound", "property", "recorded-measurement"],
 "data": [
  ["COC(=O)CN[P@](=O)(CO[C@H](C)Cn1cnc2c(N)ncnc21)OCc1ccccc1", "EC50", "> 1000 nM"],
  ["CC(C)OC(=O)CN[P@](=O)(CO[C@H](C)Cn1cnc2c(N)ncnc21)OCc1ccccc1 (single isomer, unassigned)", "EC50", "200 to 1000 nM"],
  ["C[C@H](Cn1cnc2c(N)ncnc21)OC[P@](=O)(NCC(=O)OCc1ccccc1)OCc1ccccc1 (single isomer, unassigned)", "EC50", "200 to 1000 nM"],
  ["CC(C)OC(=O)[C@H](C)N[P@](=O)(CO[C@H](C)Cn1cnc2c(N)ncnc21)OCc1ccccc1 (single isomer, unassigned)", "EC50", "< 10 nM"]
]}

Kindly review the next compound as well.
## Input Give its EC50 value. Item: CC(C)OC(=O)CN[P@@](=O)(CO[C@H](C)Cn1cnc2c(N)ncnc21)OCc1ccccc1 (single isomer, unassigned)
## Output > 1000 nM

====

Field: IC50. Provide a value for each of the compounds that follow.
- target-system: UniProt:Q12809
- Sequence (Q12809 whole entry): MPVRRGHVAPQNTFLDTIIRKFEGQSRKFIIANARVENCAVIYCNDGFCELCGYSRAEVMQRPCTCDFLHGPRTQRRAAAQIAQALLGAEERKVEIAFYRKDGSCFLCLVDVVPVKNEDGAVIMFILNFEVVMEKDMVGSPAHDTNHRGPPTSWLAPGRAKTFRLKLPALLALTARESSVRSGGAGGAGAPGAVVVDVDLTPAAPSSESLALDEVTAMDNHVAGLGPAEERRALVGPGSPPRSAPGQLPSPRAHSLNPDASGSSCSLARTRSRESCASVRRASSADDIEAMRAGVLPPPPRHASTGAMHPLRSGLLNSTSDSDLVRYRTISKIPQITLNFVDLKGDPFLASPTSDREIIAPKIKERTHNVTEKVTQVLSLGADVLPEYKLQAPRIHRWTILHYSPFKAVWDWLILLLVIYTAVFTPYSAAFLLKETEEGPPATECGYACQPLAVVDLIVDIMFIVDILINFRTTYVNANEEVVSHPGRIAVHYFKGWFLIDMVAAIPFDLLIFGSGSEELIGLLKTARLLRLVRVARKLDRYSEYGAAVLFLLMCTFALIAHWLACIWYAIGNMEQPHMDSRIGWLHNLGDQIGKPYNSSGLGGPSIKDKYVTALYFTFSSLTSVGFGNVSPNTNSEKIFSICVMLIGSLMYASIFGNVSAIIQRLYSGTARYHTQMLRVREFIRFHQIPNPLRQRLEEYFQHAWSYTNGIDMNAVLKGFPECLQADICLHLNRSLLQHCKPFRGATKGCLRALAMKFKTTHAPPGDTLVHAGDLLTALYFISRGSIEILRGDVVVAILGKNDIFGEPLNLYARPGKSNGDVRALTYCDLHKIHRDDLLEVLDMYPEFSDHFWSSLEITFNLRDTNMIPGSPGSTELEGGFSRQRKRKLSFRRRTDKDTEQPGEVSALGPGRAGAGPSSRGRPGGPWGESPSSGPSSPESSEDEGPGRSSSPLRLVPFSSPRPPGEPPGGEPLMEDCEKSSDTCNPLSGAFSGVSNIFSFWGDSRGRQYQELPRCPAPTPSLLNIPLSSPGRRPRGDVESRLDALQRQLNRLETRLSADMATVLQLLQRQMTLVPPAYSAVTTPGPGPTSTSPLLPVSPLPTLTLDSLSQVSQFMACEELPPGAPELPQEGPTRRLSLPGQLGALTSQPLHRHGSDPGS
- experiment: hERG manual whole-cell patch clamp in CHO cells (cardiotoxicity study)
- condition: IC50, hERG current, room temperature

# example entries with known answers
{"columns": ["compound", "IC50"],
 "data": [
  ["CC(C)OC(=O)[C@H](C)N[P@](=O)(CO[C@H](C)Cn1cnc2c(N)ncnc21)OCc1ccccc1 (single isomer, unassigned)", "> 30 µM"],
  ["Cc1ccccc1CO[P@@](=O)(CO[C@H](C)Cn1cnc2c(N)ncnc21)N[C@@H](C)C(=O)OC(C)C", "> 10 µM"],
  ["CC(C)OC(=O)[C@H](C)N[P@@](=O)(CO[C@H](C)Cn1cnc2c(N)ncnc21)OCc1ccccc1 (single isomer, unassigned)", "> 10 µM"]
]}

## Input Give its IC50 value. Item: `CC(C)OC(=O)[C@H](C)N[P@](=O)(CO[C@H](C)Cn1cnc2c(N)ncnc21)Oc1ccccc1`
## Output > 10 µM

====

Field: % 10 min (residue percentage). Provide a value for each of the compounds that follow.
- experiment: Stability in the human blood
- Assay type: in vitro ADME
- condition: 2 μM, 10 min
Answers are plain numbers, in %.

{"columns": ["compound", "% 10 min (residue percentage), %"],
 "data": [
  ["CC(C)OC(=O)[C@H](C)N[P@](=O)(CO[C@H](C)Cn1cnc2c(N)ncnc21)Oc1ccccc1 [GS-7340]", 93.2]
]}

Record % 10 min (residue percentage) per entry; entries follow.
1. CC(C)OC(=O)[C@H](C)N[P@](=O)(CO[C@H](C)Cn1cnc2c(N)ncnc21)OCc1ccccc1 (single isomer, unassigned) [Compound 3b]
2. CC1CC(OC(=O)C(O)c2ccccc2)CC(C)(C)N1C (centres unmarked) [Eucatropine]
3. CC(C)OC(=O)[C@H](C)N[P@@](=O)(CO[C@H](C)Cn1cnc2c(N)ncnc21)OCc1ccccc1 (single isomer, unassigned) [Compound 3a]
4. Cc1ccccc1CO[P@@](=O)(CO[C@H](C)Cn1cnc2c(N)ncnc21)N[C@@H](C)C(=O)OC(C)C [Compound 7b]

## Output
[97.1, 54.4, 97.4, 93.5]
